Here, each record is paired with measured TGI data.
System: COLO 205 colon
method: NCI tumour cell line growth inhibition, 48 h

These solved cases illustrate the format of a correct answer.
[
  {
    "molecule": "Cc1ccc(/C=C/c2c(C(=O)/C=C/c3ccc(C(F)(F)F)cc3)c(C)nc3ccccc23)cc1",
    "target-system": "COLO 205 colon",
    "reported-measurement": "5.29 µM"
  },
  {
    "molecule": "CCC1C2C=CC(CC2)N1S(=O)(=O)c1ccc(C)cc1 (centres undefined)",
    "target-system": "COLO 205 colon",
    "reported-measurement": "54.5 µM"
  },
  {
    "molecule": "CC12CC(C#N)(C#N)C(C#N)(CO1)C(=N)O2 (centres undefined)",
    "target-system": "COLO 205 colon",
    "reported-measurement": "> 100 µM"
  },
  {
    "molecule": "C[C@H]1C2Cc3cc(N)ccc3[C@@]1(C)CCN2CCc1ccccc1",
    "target-system": "COLO 205 colon",
    "reported-measurement": "32.9 µM"
  },
  {
    "molecule": "COc1ccc(C(OCC2OC(n3cc(C)c(=O)[nH]c3=O)CC2n2cc(Cn3cc(Br)c(=O)[nH]c3=O)nn2)(c2ccccc2)c2ccccc2)cc1 (centres undefined)",
    "target-system": "COLO 205 colon",
    "reported-measurement": "> 100 µM"
  },
  {
    "molecule": "O=P(O)(Cc1ccccc1)c1ccccc1-c1ccccc1",
    "target-system": "COLO 205 colon",
    "reported-measurement": "> 100 µM"
  }
]

What does the record list as TGI for `O=S(=O)(O)c1ccc(N=Nc2ccc(N=Nc3c(O)ccc4ccccc34)cc2)cc1` ?
> 100 µM

Bench note: what TGI did `O=C(NC(=O)c1cn(CCNCCO)c(=O)[nH]c1=O)OCc1ccccc1` show?
> 100 µM

Bench note: what TGI did CCc1c(OC(C)=O)c2c(NC3OC(COC(C)=O)C(OC(C)=O)C(OC(C)=O)C3OC(C)=O)nc(OC)nc2oc1=O (centres undefined) show?
> 100 µM

###

Tested on: COLO 205 colon
method: NCI tumour cell line growth inhibition, 48 h
measured-metric: TGI

These solved cases illustrate the format of a correct answer.
[
  {
    "compound": "O=c1[nH]c(=O)n(C2CC(O)C(CO)O2)cc1CO (stereo not given)",
    "target-system": "COLO 205 colon",
    "TGI": "> 100 µM"
  },
  {
    "compound": "CCOC(=O)NC1CN2CCC1CC2 (stereo not given)",
    "target-system": "COLO 205 colon",
    "TGI": "> 100 µM"
  },
  {
    "compound": "C[C@H]1Oc2cc(cnc2N)-c2c(nn(C)c2C#N)CN(C)C(=O)c2ccc(F)cc21",
    "target-system": "COLO 205 colon",
    "TGI": "51.4 µM"
  },
  {
    "compound": "CCCCCCC[CH2][Sn]1([CH2]CCCCCCC)[O]C(=O)c2cccnc2[S]1",
    "target-system": "COLO 205 colon",
    "TGI": "> 100 µM"
  },
  {
    "compound": "COC1[C@@H](OC(C)=O)[C@@H](NC(=O)C(Cl)(Cl)Cl)C(I)[C@@H](N2C(=O)c3ccccc3C2=O)[C@H]1OC (stereo not given in full)",
    "target-system": "COLO 205 colon",
    "TGI": "> 100 µM"
  },
  {
    "compound": "Cc1cccc(C(C)C)c1NC(=O)CC1Sc2ccccc2NC1=O (stereo not given)",
    "target-system": "COLO 205 colon",
    "TGI": "> 100 µM"
  },
  {
    "compound": "CCCn1c(N)c(C(=O)N/N=C(/C)c2cc3cccc(OC)c3o2)sc1=S",
    "target-system": "COLO 205 colon",
    "TGI": "> 100 µM"
  },
  {
    "compound": "COC(=O)CN(C)P(=O)(N1CC1)N1CC1",
    "target-system": "COLO 205 colon",
    "TGI": "> 100 µM"
  },
  {
    "compound": "O=C(NC(CO)Cc1ccc(Oc2cc(CC(CO)NC(=O)OCc3ccccc3)ccc2OC(=O)OCc2ccccc2)cc1)OCc1ccccc1 (stereo not given)",
    "target-system": "COLO 205 colon",
    "TGI": "36 µM"
  }
]

Lab note: next compound to report on.
// TGI lookup, key: O=S(Cc1ccccn1)c1nc2ccccc2nc1-c1ccccc1 (stereo not given)
32.8 µM

###

System: RXF 393 renal
method: NCI tumour cell line growth inhibition, 48 h; in the data active = GI50 below about 0.43 µM; inactive = the rest
Valid outcomes are listed here; reply with one: active, inactive

Completed entries (count: 4):
[
  {
    "compound": "CCCn1c(N)c(C(=O)N/N=C(/C)c2cc3cccc(OC)c3o2)sc1=S",
    "target-system": "RXF 393 renal",
    "answer-label": "inactive"
  },
  {
    "compound": "CC(C)=CCc1cc(O)cc2c1OC(C=C(C)C)C1=C2C(=O)C2=C(NCCS2(=O)=O)C1=O (stereo not given)",
    "target-system": "RXF 393 renal",
    "answer-label": "inactive"
  },
  {
    "compound": "Cc1csc(Nc2nc(-c3cccc(Br)c3)nc(C(Cl)(Cl)Cl)n2)n1",
    "target-system": "RXF 393 renal",
    "answer-label": "inactive"
  },
  {
    "compound": "C=CC(=O)N1CCC(C2CCNc3c(C(N)=O)c(-c4ccc(Oc5ccccc5)cc4)nn32)CC1 (stereo not given)",
    "target-system": "RXF 393 renal",
    "answer-label": "inactive"
  }
]

Returns: the outcome recorded for `COc1cc(CNCCCN2C(=O)c3ccc4c5c(ccc(c35)C2=O)C(=O)N(CCCNCc2cc(OC)c(OC)c(OC)c2)C4=O)cc(OC)c1OC` in this assay.
active

###

Tested on: SN12C renal
method: NCI tumour cell line growth inhibition, 48 h
measured-metric: GI50

Answered cases to consult:
[
  {
    "smiles-string": "Cn1cnc([N+](=O)[O-])c1S(=O)(=O)Oc1ccccc1",
    "target-system": "SN12C renal",
    "GI50": "21.5 µM"
  },
  {
    "smiles-string": "C=CCc1cccc(/C=N/NC(=O)CN2CCN(Cc3ccccc3)CC2)c1O",
    "target-system": "SN12C renal",
    "GI50": "4.4 µM"
  },
  {
    "smiles-string": "CCCn1c(N)c(C(=O)N/N=C(/C)c2cc3cccc(OC)c3o2)sc1=S",
    "target-system": "SN12C renal",
    "GI50": "45 µM"
  }
]

Next:
Look up GI50: `COc1ccc2[nH]cc(-c3nc(-c4c[nH]c5ncccc45)cs3)c2c1`
4.96 µM

###

System: SK-OV-3 ovarian
method: NCI tumour cell line growth inhibition, 48 h
The reader will find reported TGI values listed item by item below.
Please state the figure in µM; there is no need to write the unit.

[
  {
    "smiles-string": "COC12C=C/C(=C(/C(=O)OCc3ccncc3)C(=O)CCCCCCCCC3(OC)C=C/C(=C(/C(=O)OCc4ccncc4)C(=O)CCCCCCCC1)O3)O2",
    "reported-measurement": 9.02
  }
]

Notebook entry, SK-OV-3 ovarian assay: TGI of `O=C(NCCCN(CCCCN(CCCNC(=O)C(F)(F)F)CCCc1ccccc1)CCCc1ccccc1)C(F)(F)F` = ?
5.6

###

Tested on: BT-549 breast
method: NCI tumour cell line growth inhibition, 48 h
measured-metric: TGI (µM)
Dear colleague, please return just the value in µM, with no unit written.

[
  {
    "smiles-string": "CC1(C)OCCn2c1nc1c(N3CCOCC3)nc(-c3cnc(N)nc3)nc12",
    "unit-spec": "µM",
    "TGI": 2.91
  }
]

Suppose we examine the compound `Cn1c(=O)c2c(no[n+]2[O-])c2ccccc21` ; what TGI value has been reported?
34.2

For the compound `COc1cc(-c2nn(-c3cccc(NC(=O)Nc4ccc(Cl)c(Cl)c4)c3)cc2-c2ccncc2)ccc1Cl` , what TGI is on record?
27.6

###

Tested on: MDA-N
method: NCI tumour cell line growth inhibition, 48 h
measured-metric: TGI

Here's what some known entries look like.
[
  {
    "compound": "COc1ccc(C(OCC2OC(n3cc(C)c(=O)[nH]c3=O)CC2n2cc(Cn3cc(Br)c(=O)[nH]c3=O)nn2)(c2ccccc2)c2ccccc2)cc1 (stereo not given)",
    "target-system": "MDA-N",
    "TGI": "> 100 µM"
  },
  {
    "compound": "O=c1c2ccccc2sc2cccc(NCCCN3CCN(CCCNc4cccc5sc6ccccc6c(=O)c45)CC3)c12",
    "target-system": "MDA-N",
    "TGI": "> 100 µM"
  },
  {
    "compound": "CCOC(=O)c1cc(C2(O)CCN(CC(C)CC)C2=O)c(-c2cc(C)no2)[nH]1 (stereo not given)",
    "target-system": "MDA-N",
    "TGI": "> 100 µM"
  },
  {
    "compound": "CC(C)C1=C(Cc2ccccc2)C(=O)O/C1=C\\c1cc(Cl)c(O)c(Cl)c1",
    "target-system": "MDA-N",
    "TGI": "37.4 µM"
  },
  {
    "compound": "CC12CC(C#N)(C#N)C(C#N)(CO1)C(=N)O2 (stereo not given)",
    "target-system": "MDA-N",
    "TGI": "> 100 µM"
  }
]

Entry `O=C(CC(O)(C(F)(F)F)C(F)(F)F)c1cc(CC(=O)C(O)(C(F)(F)F)C(F)(F)F)cc(CC(=O)C(O)(C(F)(F)F)C(F)(F)F)c1` has what TGI?
> 9.13 µM

For the compound `CCOP(=O)(O)C(C)(C)NC` , what TGI is on record?
> 100 µM

Record request: TGI value, item `Oc1ccc(-c2nc(-c3ccc(F)cc3)c(-c3ccc4ccccc4n3)[nH]2)cc1`
27.9 µM

Which TGI is reported for this compound? CN1C(=O)C(CC=O)(C(C)(C)C)c2ccccc21 (stereo not given)
> 100 µM

Find the recorded TGI belonging to `Cc1ccsc1/C=N/Nc1ccc2ccccc2n1` and report it.
> 100 µM

// lookup TGI for `CC(=O)Nc1ccc(-c2nc3cc(Cl)ccc3o2)cc1`
> 50 µM
